This collection of values is drawn from patent US20180185450A1.

target-desc: human GLP-1 receptor (human, UniProt P43220 24-463)
experiment: cell-based or functional assay
property-measured: EC50 hGLP-1R (cAMP) (nM)
Please state the figure in nM; there is no need to write the unit.

Given item HXQGTFTSDLSKQMDSRRAQDFIEWLKKGGPSSGAPPPS (dSer at 2; C-terminal NH2) [SEQ ID NO: 186] , the value recorded as its EC50 hGLP-1R (cAMP) is 0.102

Documented EC50 hGLP-1R (cAMP) of HXQGTFTSDLSKQKESRRAQDFIEWLKAGGPSSGAPPPS (dSer at 2; K(Ac) at 14; C-terminal NH2) [SEQ ID NO: 194] : 0.159

EC50 hGLP-1R (cAMP) for HXQGTFTSDLSKQLEEEAARLFIEWLKAGGPSSGAPPPS (Aib at 2; C-terminal NH2) [SEQ ID NO: 225] is 0.0007

Query HXQGTFTSDLSKQMESRRAXDFIEWLKAGGPSSGAPPPS (dSer at 2; Aib at 20; C-terminal NH2) [SEQ ID NO: 190] yields EC50 hGLP-1R (cAMP) of 0.0213
